test: Cytotoxicity activity against human HepG2 cells assessed by CellTiter-Glo luminescent cell viability assay.; assay type: toxicity, cell-based; design: assay stage confirmatory assay, source tissue liver; conditions: HepG2 cells, read-out: IC50 relative
Active and inactive are the calls of the source. How the calls were made is not given here.
// one of active, inactive, no free text

Field: example entries. Status: answers known.
- compound: "Fc1ccc2[nH]c(CCNc3ncc(Cl)cn3)nc2c1"
  qualitative.label: "active"
- compound: "CC(=O)Nc1cccc(-n2c(=O)n(C3CC3)c(=O)c3c(Nc4ccc(I)cc4F)n(C)c(=O)c(C)c32)c1"
  qualitative.label: "active"
- compound: "CCOc1cc2ncc(C#N)c(Nc3ccc(OCc4ccccn4)c(Cl)c3)c2cc1NC(=O)/C=C/CN(C)C"
  qualitative.label: "inactive"
- compound: "CC1=CCN(C[C@H](O)COc2ccc3c(c2)OCO3)CC1"
  qualitative.label: "inactive"
- compound: "CC(C)Nc1cc(-c2c[nH]c(C(=O)N[C@H](CO)c3cccc(Cl)c3)c2)c(Cl)cn1"
  qualitative.label: "active"

Task: Check the results log: what was the call for Cc1cc(C(=O)Nc2cccc(N(C)C(=O)c3coc(C)c3)c2)co1 ?
Output: active

Task: Check the results log: what was the call for Cc1ccc(-c2cc3c(=O)n(CC#N)ccn3n2)cc1 ?
Output: active

Task: Check the results log: what was the call for CN(CC(=O)NCCN1CCC(Cc2ccccc2)CC1)S(=O)(=O)c1cccc2nsnc12 ?
Output: active
